# Target desc: UniProt:Q9YQ12
# Sequence (Q9YQ12 whole entry): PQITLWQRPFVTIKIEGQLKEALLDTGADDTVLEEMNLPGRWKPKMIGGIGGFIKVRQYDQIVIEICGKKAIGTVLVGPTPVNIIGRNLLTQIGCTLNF
# reported pKi; entries follow
Schema: pKi number; meaning minus log10 of the concentration expressed in molar units.

// below: answered compounds
>>> recorded_number("COc1ccc(S(=O)(=O)N(CC(C)C)C[C@@H](O)[C@H](Cc2ccccc2)NC(=O)OC2COCCS(=O)(=O)CCOC2)cc1")
8.72
>>> recorded_number("COc1ccc(S(=O)(=O)N(CC(C)C)C[C@@H](O)[C@H](Cc2ccccc2)NC(=O)O[C@@H]2CCCOCOC2)cc1")
9.80
>>> recorded_number("COc1ccc(S(=O)(=O)N(CC(C)C)C[C@@H](O)[C@H](Cc2ccccc2)NC(=O)O[C@@H]2CCCCOC2)cc1")
9.09
>>> recorded_number("COc1ccc(S(=O)(=O)N(CC(C)C)C[C@@H](O)[C@H](Cc2ccccc2)NC(=O)O[C@H]2CCCOCOC2)cc1")
9.82
>>> recorded_number("COc1ccc(S(=O)(=O)N(CC(C)C)C[C@@H](O)[C@H](Cc2ccccc2)NC(=O)OC2COCOC2)cc1")
10.39

Prompt line: Please indicate pKi recorded for COc1ccc(S(=O)(=O)N(CC(C)C)C[C@@H](O)[C@H](Cc2ccccc2)NC(=O)OC2COCCOCCOC2)cc1
Response line: 7.80

Prompt line: Please indicate pKi recorded for COc1ccc(S(=O)(=O)N(CC(C)C)C[C@@H](O)[C@H](Cc2ccccc2)NC(=O)OC2COCCOCOCCOC2)cc1
Response line: 8.20

Prompt line: Please indicate pKi recorded for COc1ccc(S(=O)(=O)N(CC(C)C)C[C@@H](O)[C@H](Cc2ccccc2)NC(=O)OC2COCCN(C)CCOC2)cc1
Response line: 7.72

Prompt line: Please indicate pKi recorded for COc1ccc(S(=O)(=O)N(CC(C)C)C[C@@H](O)[C@H](Cc2ccccc2)NC(=O)O[C@H]2CCOCOC2)cc1
Response line: 9.80

Prompt line: Please indicate pKi recorded for COc1ccc(S(=O)(=O)N(CC(C)C)C[C@@H](O)[C@H](Cc2ccccc2)NC(=O)O[C@H]2CCCOCC2)cc1
Response line: 9.13

Prompt line: Please indicate pKi recorded for COc1ccc(S(=O)(=O)N(CC(C)C)C[C@@H](O)[C@H](Cc2ccccc2)NC(=O)OC2CCCCCC2)cc1
Response line: 7.57

Prompt line: Please indicate pKi recorded for COc1ccc(S(=O)(=O)N(CC(C)C)C[C@@H](O)[C@H](Cc2ccccc2)NC(=O)OC2COCCOCCOCCOC2)cc1
Response line: 7.48

These measurements were taken from ChEMBL document CHEMBL1140100.
